Source: patent US8569336B2

Molecular target: purified catalytic domain of recombinant human TACE (rhTACEc) (Homo sapiens, UniProt P78536, N452Q/S266A)
Construct: 6xHis (C); made in house; host or cells: baculovirus/Hi5 insect cells
Sequence (P78536 215-477 S266A/N452Q): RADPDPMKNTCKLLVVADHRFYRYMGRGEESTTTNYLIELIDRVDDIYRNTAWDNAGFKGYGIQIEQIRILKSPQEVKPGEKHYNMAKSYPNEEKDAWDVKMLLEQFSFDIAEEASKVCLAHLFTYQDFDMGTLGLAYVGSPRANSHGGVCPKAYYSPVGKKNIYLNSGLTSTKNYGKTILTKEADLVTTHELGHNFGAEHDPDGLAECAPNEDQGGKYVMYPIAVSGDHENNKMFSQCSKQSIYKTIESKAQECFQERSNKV
Experiment: TACE kinetic assay: cleavage of internally quenched peptide substrate TNF-FRET 2 (Ki)
Type: biochemical
Details: TNF-FRET 2 substrate, read-out: Ki

[
  {
    "molecule": "COc1ccc2c(c1F)C(=O)N(C[C@@]1(c3cc4nc(C)c(Br)cc4o3)NC(=O)NC1=O)C2",
    "Ki (nM)": 0.5
  },
  {
    "molecule": "COc1ccc2c(c1)C(=O)N(C[C@@]1(c3cc4cc(-c5ccncc5)cnc4o3)NC(=O)NC1=O)C2",
    "Ki (nM)": 0.523
  },
  {
    "molecule": "COCCN1CCc2oc([C@]3(CN4Cc5ccc(OC)cc5C4=O)NC(=O)NC3=O)cc2C1",
    "Ki (nM)": 5.27
  },
  {
    "molecule": "COc1ccc2c(c1)C(=O)N(C[C@@]1(c3cc4nc(-c5ccc(C#N)nc5)ccc4o3)NC(=O)NC1=O)C2 [Compound 1530]",
    "Ki (nM)": 0.7
  }
]
